- Target Or Test System: Cytochrome P450 2C19 (Homo sapiens) (UniProt P33261)
- Sequence (P33261 whole entry, looked up): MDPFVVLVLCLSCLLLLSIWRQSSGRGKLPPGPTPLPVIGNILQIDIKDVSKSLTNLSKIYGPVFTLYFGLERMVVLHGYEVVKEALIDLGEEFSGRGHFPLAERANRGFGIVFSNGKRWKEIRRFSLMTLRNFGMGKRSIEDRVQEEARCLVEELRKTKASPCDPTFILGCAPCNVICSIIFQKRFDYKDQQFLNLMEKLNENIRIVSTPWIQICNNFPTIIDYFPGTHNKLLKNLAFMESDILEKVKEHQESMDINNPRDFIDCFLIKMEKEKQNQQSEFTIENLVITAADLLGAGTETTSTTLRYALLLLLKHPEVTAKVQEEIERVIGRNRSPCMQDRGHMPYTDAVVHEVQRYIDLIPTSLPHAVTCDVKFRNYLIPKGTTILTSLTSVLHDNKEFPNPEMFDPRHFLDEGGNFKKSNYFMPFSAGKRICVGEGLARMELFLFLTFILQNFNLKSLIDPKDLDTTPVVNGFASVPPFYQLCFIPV
- Assay Details: Cytochrome panel assay with activity outcomes
- Condition Parameters: recombinant CYP, pro-luciferin dealkylation, luminescence, p450-cyp2c19; series mostly up to 57.1 µM
Hit rate of the full screen: of about 16,000 compounds, about 5,800 (36%) were called active. Another 23% or so got no clear call; they are omitted. Calls follow the shape of the dose curve; as a rule, active = well fitted curve in the direction sought with a large enough effect; inconclusive = small, poorly fitted or top-dose-only effect, or effect the other way; inactive = no such curve, though single readings can be large or run the other way. This is one part of the list.
Possible outcomes: class 1 (active), class 0 (inactive)

- Given Smiles: "C=C(C)[C@@H]1CC=C(C(=O)O)CC1"
  Group Label: "class 0"
- Given Smiles: "COc1ccc2c(c1)-c1c(sn(-c3ccc(OC)c(OC)c3)c1=S)C(C)(C)N2"
  Group Label: "class 1"
- Given Smiles: "C[C@@H](/C=C\\c1cccc(Oc2ccc(F)cc2)c1)N(O)C(N)=O"
  Group Label: "class 1"
- Given Smiles: "O=S1(=O)C=C(SCc2cccc(Cl)c2)Nc2ccccc21"
  Group Label: "class 1"
- Given Smiles: "CC1(C)OC(=O)NC1=O"
  Group Label: "class 0"
